B1: CPN1 (parent)
chain: RGVRRTASTPTPDDKLFQKLAKVY

Variants of: B1
MEASUREMENT NOTES: protein stability index of a GFP-peptide fusion (GPS, HEK-293T) (PSI 1-6); higher = more stable;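 note: lentivirally expressed fusions sorted by FACS into six bins by GFP to DsRed ratio, PSI derived from sequencing read proportions per bin multiplied by bin number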
DETAILS: c terminus: a fixed tail appended
# reported protein stability index; entries follow
MEASURED METRIC: protein stability index

> print(dat)
                   sequence.content          measured.metric  result
 1  RGVRRTASTPTPDDKLFQALAKVY [K19A]  protein stability index    1.62
 2   RGVRATASTPTPDDKLFQKLAKVY [R5A]  protein stability index    3.41
 3  RGVRRTASTPTPDDKLFQKLAKVM [Y24M]  protein stability index    1.66
 4  RGVRRTASTPTPDDKLFQKWAKVY [L20W]  protein stability index    2.58
 5  RGVRRTASTPEPDDKLFQKLAKVY [T11E]  protein stability index     2.1
 6  RGVRRTASTPTPDFKLFQKLAKVY [D14F]  protein stability index    1.75
 7  RGVRRTASTDTPDDKLFQKLAKVY [P10D]  protein stability index    2.49
 8  RGVRRTASTPTPSDKLFQKLAKVY [D13S]  protein stability index    2.02
 9  RGVRRTASTPTPDDKTFQKLAKVY [L16T]  protein stability index    3.43
10  RGVRRTASTPTPDDKLDQKLAKVY [F17D]  protein stability index    3.32
11   RGPRRTASTPTPDDKLFQKLAKVY [V3P]  protein stability index    2.35
12   RGRRRTASTPTPDDKLFQKLAKVY [V3R]  protein stability index    2.84
13  RGVRRTASTPTPDDKHFQKLAKVY [L16H]  protein stability index    2.64
14  RGVRRTASTPTPDDKLFQGLAKVY [K19G]  protein stability index    2.21
15  RGVRRTASTPTPDDKLQQKLAKVY [F17Q]  protein stability index    3.21
16   RCVRRTASTPTPDDKLFQKLAKVY [G2C]  protein stability index    2.22
17  RGVRRTASTPTPDDKLFQKLAKVQ [Y24Q]  protein stability index    2.92
18  RGVRRTASTPTPDDKLFQKLAAVY [K22A]  protein stability index    2.19
19   RGVRRTNSTPTPDDKLFQKLAKVY [A7N]  protein stability index    2.54
20  RGVRRTASTPTPDDKLFQKLAKWY [V23W]  protein stability index    1.92
21  RGVRRTASTPTPDDKLGQKLAKVY [F17G]  protein stability index    3.25
22  RGVRRTASTPTPDDKLSQKLAKVY [F17S]  protein stability index    2.94
23  RGVRRTASTPTSDDKLFQKLAKVY [P12S]  protein stability index    3.04
24  RGVRRTASTPTPDDKLFRKLAKVY [Q18R]  protein stability index    1.77
25   RGVLRTASTPTPDDKLFQKLAKVY [R4L]  protein stability index    1.92
26   RGSRRTASTPTPDDKLFQKLAKVY [V3S]  protein stability index    1.93
27  RGVRRTASTPTPDEKLFQKLAKVY [D14E]  protein stability index    1.95
28  RGVRRTASTPMPDDKLFQKLAKVY [T11M]  protein stability index    2.03
29   RGVRRTAFTPTPDDKLFQKLAKVY [S8F]  protein stability index     1.7
30  RGVRRTASTPTPDDKLFQTLAKVY [K19T]  protein stability index    1.98
31   RGVRRTASFPTPDDKLFQKLAKVY [T9F]  protein stability index     2.3
32  RGVRRTASTPTPDRKLFQKLAKVY [D14R]  protein stability index    1.93
33  RGVRRTASTPTPDDKLFQKLFKVY [A21F]  protein stability index    1.64
34  RGVRRTASTPYPDDKLFQKLAKVY [T11Y]  protein stability index    2.25
35   RGVARTASTPTPDDKLFQKLAKVY [R4A]  protein stability index    2.01
36   RGKRRTASTPTPDDKLFQKLAKVY [V3K]  protein stability index    1.62
37   RGVRREASTPTPDDKLFQKLAKVY [T6E]  protein stability index    2.12
38   RGIRRTASTPTPDDKLFQKLAKVY [V3I]  protein stability index    2.48
39  RGVRRTASTPTPDDKLPQKLAKVY [F17P]  protein stability index    2.84
40  RGVRRTASTPTPDDWLFQKLAKVY [K15W]  protein stability index    1.93
41  RGVRRTASTHTPDDKLFQKLAKVY [P10H]  protein stability index    1.34
42   RGVRRKASTPTPDDKLFQKLAKVY [T6K]  protein stability index    1.61
43   QGVRRTASTPTPDDKLFQKLAKVY [R1Q]  protein stability index    2.42
44   REVRRTASTPTPDDKLFQKLAKVY [G2E]  protein stability index    2.35
45   AGVRRTASTPTPDDKLFQKLAKVY [R1A]  protein stability index     1.4
46   YGVRRTASTPTPDDKLFQKLAKVY [R1Y]  protein stability index    2.93
47   RAVRRTASTPTPDDKLFQKLAKVY [G2A]  protein stability index    2.52
48   RGVQRTASTPTPDDKLFQKLAKVY [R4Q]  protein stability index    1.76
49  RGVRRTASTPTPTDKLFQKLAKVY [D13T]  protein stability index    1.27
50   RGVMRTASTPTPDDKLFQKLAKVY [R4M]  protein stability index    2.26
51   RGVRRTVSTPTPDDKLFQKLAKVY [A7V]  protein stability index    2.75
52   RGVSRTASTPTPDDKLFQKLAKVY [R4S]  protein stability index    2.76
53  RGVRRTASTPTPADKLFQKLAKVY [D13A]  protein stability index    1.97
54  RGVRRTASTPTPDDKMFQKLAKVY [L16M]  protein stability index    2.65
55  RGVRRTASTPTPDDKLFQKLAKQY [V23Q]  protein stability index    3.44
56   RGVRITASTPTPDDKLFQKLAKVY [R5I]  protein stability index    2.33
57   RGVRRGASTPTPDDKLFQKLAKVY [T6G]  protein stability index    1.74
58   RGVRRTDSTPTPDDKLFQKLAKVY [A7D]  protein stability index    2.05
59   RGVWRTASTPTPDDKLFQKLAKVY [R4W]  protein stability index    2.02
60   RQVRRTASTPTPDDKLFQKLAKVY [G2Q]  protein stability index    1.94
61  RGVRRTASTPTPDDKLFQKDAKVY [L20D]  protein stability index    4.06
62   NGVRRTASTPTPDDKLFQKLAKVY [R1N]  protein stability index    2.42
63  RGVRRTASTPTPDDKLRQKLAKVY [F17R]  protein stability index    3.43
64  RGVRRTASTPTPDDKLFQKCAKVY [L20C]  protein stability index    2.56
65  RGVRRTASTPTPDDKKFQKLAKVY [L16K]  protein stability index    3.56
66  RGVRRTASTPTPDDKLFQKLAKDY [V23D]  protein stability index    3.02
67  RGVRRTASTPTPDDILFQKLAKVY [K15I]  protein stability index    1.76
68  RGVRRTASTPTPDDKLFQKLGKVY [A21G]  protein stability index    3.23
69  RGVRRTASTPTPDDDLFQKLAKVY [K15D]  protein stability index    1.99
70  RGVRRTASTPTPDDKLFQKLAKEY [V23E]  protein stability index    3.84
71   RGVRRTRSTPTPDDKLFQKLAKVY [A7R]  protein stability index    1.71
72  RGVRRTASTQTPDDKLFQKLAKVY [P10Q]  protein stability index    1.78
73   RFVRRTASTPTPDDKLFQKLAKVY [G2F]  protein stability index    1.51
74   RGVRRTASVPTPDDKLFQKLAKVY [T9V]  protein stability index    1.97
75   RLVRRTASTPTPDDKLFQKLAKVY [G2L]  protein stability index    1.24
76  RGVRRTASTPNPDDKLFQKLAKVY [T11N]  protein stability index    2.23
77  RGVRRTASTFTPDDKLFQKLAKVY [P10F]  protein stability index    2.19
78  RGVRRTASTPTPDDKLFQKLAKVG [Y24G]  protein stability index       3
79   RGVRDTASTPTPDDKLFQKLAKVY [R5D]  protein stability index    2.69
80  RGVRRTASTPAPDDKLFQKLAKVY [T11A]  protein stability index    2.29
81  RGVRRTASTPTPDDKLFQKLAKFY [V23F]  protein stability index    1.64
82  RGVRRTASTPTPDCKLFQKLAKVY [D14C]  protein stability index    1.56
83  RGVRRTASTPTNDDKLFQKLAKVY [P12N]  protein stability index    1.98
84   RGVRRTLSTPTPDDKLFQKLAKVY [A7L]  protein stability index    1.17
85   RGVRVTASTPTPDDKLFQKLAKVY [R5V]  protein stability index    1.87
86  RGVRRTASTPHPDDKLFQKLAKVY [T11H]  protein stability index    2.04
87  RGVRRTASTPTPDDKLFQKMAKVY [L20M]  protein stability index    2.23
88  RGVRRTASTPTPDDKLFQKLAKIY [V23I]  protein stability index    2.27
89  RGVRRTASTGTPDDKLFQKLAKVY [P10G]  protein stability index    2.27
90  RGVRRTASTPTPDDKLFWKLAKVY [Q18W]  protein stability index    1.37
91  RGVRRTASTPTPDDKLFQKVAKVY [L20V]  protein stability index    3.48
